Hello, the source for this data is paper PMC3754872, in case you need it.

TESTED_ON: CXCR2 (Mus musculus, UniProt P35343)
Sequence (P35343 1-359): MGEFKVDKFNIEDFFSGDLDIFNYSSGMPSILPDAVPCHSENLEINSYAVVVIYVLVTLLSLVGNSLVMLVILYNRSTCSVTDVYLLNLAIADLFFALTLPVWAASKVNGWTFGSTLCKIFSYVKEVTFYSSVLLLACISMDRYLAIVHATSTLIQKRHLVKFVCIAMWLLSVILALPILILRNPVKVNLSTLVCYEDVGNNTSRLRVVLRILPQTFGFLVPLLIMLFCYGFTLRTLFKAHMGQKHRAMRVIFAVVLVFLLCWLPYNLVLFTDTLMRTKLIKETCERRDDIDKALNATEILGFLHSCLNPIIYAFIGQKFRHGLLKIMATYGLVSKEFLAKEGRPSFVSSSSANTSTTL
ASSAY_DETAILS: inhibition of agonist-stimulated
OBSERVED_PROPERTY: IC50 (nM)
API: value field is a number in nM; no unit string.

Req: Look at this compound and give its reported IC50. O=C(Nc1ccc([N+](=O)[O-])cc1O)Nc1ccccc1Br [SB225002]
Resp: 16.6
